Test system: HepG2 cells
Assay: HepG2 cytotoxicity assay (resazurin, 72 h)
Type: cell-based, human
Settings: Homo sapiens, HepG2, 72 h; read-out: HepG2 pEC50 (converted)
Mark t only when EC50 stays strictly below 40 µM. Values equal to the cut-off are f.

Consider the following illustrative entries.
[
  {
    "Record smiles": "N#Cc1ccc(NC(=O)c2cc(Cl)ccc2O)cn1",
    "Class": "t"
  },
  {
    "Record smiles": "CN1CCN(c2cc(N3CCCCC3)c3ccccc3n2)CC1",
    "Class": "f"
  },
  {
    "Record smiles": "Nc1nc2c(Cl)c(Cl)ccc2s1",
    "Class": "f"
  }
]

Item Cc1cc(NC(=O)c2cc(Cl)ccc2O)ccc1C#N : EC50 beneath 40 µM, strictly? t

Item NC(=O)Nc1nc2c(Cl)c(Cl)ccc2s1 : EC50 beneath 40 µM, strictly? f

Item N#Cc1ccc(NC(=O)c2cc(Cl)ccc2O)cc1 : EC50 beneath 40 µM, strictly? t

The reported numbers originate from paper PMC12771125.
